# assayed target: T1, rhesus ERBB3 on transiently transfected HEK-293 cells (rhesus monkey (Macaca mulatta), UniProt P21860 20-1342 (human entry))
# T1 construct: also called rhesus ERBB3+ HEK-293 cells
# T1 chain: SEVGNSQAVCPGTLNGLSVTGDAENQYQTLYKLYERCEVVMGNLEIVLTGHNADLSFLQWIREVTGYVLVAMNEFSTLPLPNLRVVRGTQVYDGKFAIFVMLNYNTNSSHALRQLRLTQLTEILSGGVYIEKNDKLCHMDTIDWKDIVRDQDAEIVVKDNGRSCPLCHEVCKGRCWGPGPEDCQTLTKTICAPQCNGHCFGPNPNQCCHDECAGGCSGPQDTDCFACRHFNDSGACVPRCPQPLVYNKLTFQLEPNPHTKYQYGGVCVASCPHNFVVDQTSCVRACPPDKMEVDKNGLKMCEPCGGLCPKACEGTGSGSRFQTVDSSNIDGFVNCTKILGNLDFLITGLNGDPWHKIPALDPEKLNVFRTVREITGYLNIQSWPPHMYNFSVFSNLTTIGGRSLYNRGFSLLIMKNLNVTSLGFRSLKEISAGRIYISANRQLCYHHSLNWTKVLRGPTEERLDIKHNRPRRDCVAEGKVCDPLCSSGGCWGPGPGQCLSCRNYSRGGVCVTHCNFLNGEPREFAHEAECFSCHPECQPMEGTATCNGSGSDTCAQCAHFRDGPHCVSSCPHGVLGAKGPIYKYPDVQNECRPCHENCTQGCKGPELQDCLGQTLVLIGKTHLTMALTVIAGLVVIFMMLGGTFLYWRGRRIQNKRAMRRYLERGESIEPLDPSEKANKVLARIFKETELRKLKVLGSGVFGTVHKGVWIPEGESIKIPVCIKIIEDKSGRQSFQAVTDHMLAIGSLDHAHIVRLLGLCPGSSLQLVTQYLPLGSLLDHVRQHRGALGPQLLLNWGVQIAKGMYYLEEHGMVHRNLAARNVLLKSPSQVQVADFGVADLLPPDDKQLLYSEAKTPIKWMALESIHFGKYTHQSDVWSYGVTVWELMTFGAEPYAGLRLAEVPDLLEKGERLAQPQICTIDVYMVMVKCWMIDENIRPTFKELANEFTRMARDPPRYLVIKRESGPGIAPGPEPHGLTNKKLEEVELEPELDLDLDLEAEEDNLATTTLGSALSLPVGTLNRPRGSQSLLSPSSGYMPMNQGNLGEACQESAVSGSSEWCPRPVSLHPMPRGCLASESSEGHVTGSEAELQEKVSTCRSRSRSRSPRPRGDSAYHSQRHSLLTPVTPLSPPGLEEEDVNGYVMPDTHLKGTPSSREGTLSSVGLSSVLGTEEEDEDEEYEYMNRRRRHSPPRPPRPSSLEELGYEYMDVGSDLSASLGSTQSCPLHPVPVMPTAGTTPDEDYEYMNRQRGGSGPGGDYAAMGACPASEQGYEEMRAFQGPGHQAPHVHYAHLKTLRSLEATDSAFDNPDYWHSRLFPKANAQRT
# measurement description: flow cytometry, rhesus ERBB3-transfected HEK-293
reported metric: maximum MFI, fold over isotype control background

Name the reported maximum MFI, fold over isotype control background value associated with the binder TTP IgG1null (antibody, V domains shown, Designer clone; Human IgG1null and human Ckappa; also called Total Theoretically Possible clone) VH: QVQLVESGGGLVKPGGSLRLSCAASGFTFSDYGMSWIRQAPGKGLEWVSTISDSGSTIYYADSVKGRFTISRDNAKNSLYLQMNSLRAEDTAVYYCAREYGDYDGFDYWGQGTLVTVSS VL: DIQMTQSPSSLSASVGDRVTITCRASQSISSYLNWYQQKPGKAPKLLIYAASSLQSGVPSRFSGSGSGTDFTLTISSLQPEDFATYYCLQYDSTPLTFGGGTKVEIK
> 20 fold

Now consider 17H10 IgG1null (antibody, V domains shown, Human IgG1null and human Ckappa) VH: QVQLVESGGGLVKPGGSLRLSCAASGFTFSDYGMSWIRQAPGKGLEWVSTISDGGSYTYYADSVKGRFTISRDNAKNSLYLQMNSLRAEDTAVYYCAREWGDYDGFDEWGQGTLVTVSS VL: DIQMTQSPSSLSASVGDRVTITCRASQSISGYLSWYQQKPGKAPKLLIYAASTLQSGVPSRFSGSGSGTDFTLTISSLQPEDFATYYCLQYDSTPYTFGGGTKVEIK .
> 20 fold
